system: K562; assay: NCI tumour cell line growth inhibition, 48 h
Active and inactive are the calls of the source. Rule as the data show it: active = GI50 up to about 1.1 µM and inactive = higher.
Possible outcomes: y = active, n = inactive

| compound | answerLabel |
| --- | --- |
| C#CC[N+](CCO)(CCO)CCCCCCCCCCCCCCCCCC | n |
| CCCCC(=O)OC[n+]1ccc(-c2c(COC(=O)NC(C)C)c(COC(=O)NC(C)C)c3n2CCC3)cc1 | n |
| CC(=O)n1[nH]c(=O)n(-c2ccc(Cl)cc2)c1=O | n |
| CC(=O)O[C@H]1CC2C(C3CCC(C(C)CCC(=O)O)[C@]31C)[C@H](OC(C)=O)C[C@@H]1CC3(CC[C@]21C)OOC1(CC[C@]2(C)C4C[C@H](OC(C)=O)[C@]5(C)C(C(C)CCC(=O)O)CCC5C4[C@H](OC(C)=O)C[C@@H]2C1)OO3 (stereo not given in full) | n |
| CCC(C)[C@@H](NCc1ccccc1)[C@H](OCc1ccccc1)[C@@H]1COC(C)(C)O1 (stereo not given in full) | n |
| COc1cc(S(=O)(=O)Nc2ccc(-c3csc(/N=C\c4cccs4)n3)cc2)ccc1Cl | n |
| c1ccc(C2SCc3nc4ccccc4n32)cc1 (stereo not given) | n |
| O=C1C=C(N2CCCC2)C=C(N2CCCC2)C1 | n |
| O=C(O)c1ccc(Nc2nc3ccc(C(F)(F)F)cc3nc2C(=O)O)cc1 | n |
| COC(=O)[C@H](Cc1ccccc1)NC(=O)c1ccc(CNC(=O)/C=C/c2ccc(-c3ccccc3)cc2)cc1 | n |
| N#CC(C#N)[C@@H]1CCC=C(Sc2ccccc2)[C@H]1Sc1ccccc1 | n |
| CN(C)c1n/c(=N/Cc2ccncc2)ss1 | n |
| CCCCCCNCCCNc1c2cc(OC)ccc2nc2cccc([N+](=O)[O-])c12 | y |
| S=C(N/N=C\C=N/NC(=S)N1CCCCCC1)N1CCCCCC1 | n |
| Cc1nc2sc3ccccc3n2c(=O)c1/N=N/c1ccc(Br)cc1 | n |
| CCOC(=O)C1=C(C)N(Cc2ccccc2)C2(O)C=CC(=O)C3C(=O)N(c4ccccc4)C(=O)C132 (stereo not given) | n |
| O=Cc1cn(S(=O)(=O)c2ccccc2)c2ccccc12 | n |
| COc1ccc(CCNC(=O)Cc2ccccc2CO)cc1OC | n |
| CC(NC1=NCCO1)c1cccs1 (stereo not given) | n |
| Cc1ccc(NC(=O)C(=O)C(C(=O)c2ccc3ccccc3c2)C2OC(=O)c3ccccc32)c(C)c1 (stereo not given) | n |

###

The entries below come with measured GI50 values attached.
system: OVCAR-3; test: NCI tumour cell line growth inhibition, 48 h
Activity calls are given as the source filed them. No stated cut-off is given here; in the data, active = GI50 up to about 1.1 µM and inactive = higher.

| compound | GI50 |
| --- | --- |
| N#CC(C#N)[C@@H]1CCC=C(Sc2ccccc2)[C@H]1Sc1ccccc1 | 3.44 µM (inactive) |
| Cc1cccc(Cl)c1NC(=O)/C=C/c1ccccc1 | > 100 µM (inactive) |
| COC(=O)CC1CCN(C#N)CC1CC[N+](=O)[O-] (stereo not given) | > 100 µM (inactive) |
| CCCCC(=O)OC[n+]1ccc(-c2c(COC(=O)NC(C)C)c(COC(=O)NC(C)C)c3n2CCC3)cc1 | > 100 µM (inactive) |
| O=C(/C=C/c1c(O)ccc2ccccc12)c1ccc([N+](=O)[O-])cc1 | 17.3 µM (inactive) |
| O=C(NC(O)(C(F)(F)F)C(F)(F)F)c1ccccc1 | > 100 µM (inactive) |
| CC(C)OC(=O)C1=C2c3ncccc3C(=O)N2[C@@H](Cl)[C@@H](Cl)[C@@H]1Cl | > 100 µM (inactive) |
| O=Cc1cn(S(=O)(=O)c2ccccc2)c2ccccc12 | 41 µM (inactive) |
| [O-][S+]1[C@H](c2ccccc2)c2c(-c3ccccc3)sc(-c3ccccc3)c2[C@@H]1c1ccccc1 (stereo not given in full) | > 100 µM (inactive) |
| COC(=O)/C=C(/C(=O)OC)C1(C)c2cc(C(=O)OC)c(C(=O)OC)c(N)c2C(=N)N1c1ccccc1 (stereo not given) | 17.9 µM (inactive) |
